# protocol: acute toxicity (LD 50, Probit analysis, death within 24 hours)
# measurementConditions: mouse, in vivo, ip; intraperitoneal, female Swiss mice, 24 hours
Cut-off 100 mg/kg on LD50 at 24 h: below means yes, at or above means no.

Task: Problem: For the compound CCN(CC)CCC(C)CCOc1c(C)nc(Cc2ccccc2)c2c1COC2 (stereo not shown) , is LD50 at 24 h under 100 mg/kg?
Output: yes

Task: Problem: For the compound Cc1nc(Cc2ccccc2)c2c(c1OCCCCNC(C)(C)C)COC2 , is LD50 at 24 h under 100 mg/kg?
Output: yes

Task: Problem: For the compound Cc1nc(Cc2ccccc2)c2c(c1OCCCNC(C)C)COC2 , is LD50 at 24 h under 100 mg/kg?
Output: no

Task: Problem: For the compound C=C[C@H]1C[N@@]2CC[C@H]1C[C@@H]2[C@@H](O)c1ccnc2ccc(OC)cc12 [Quinidine, quinidine, reference compound] , is LD50 at 24 h under 100 mg/kg?
Output: no

Task: Problem: For the compound Cc1nc(Cc2ccccc2)c2c(c1OCCC(C)CCNC(C)C)COC2 (stereo not shown) , is LD50 at 24 h under 100 mg/kg?
Output: yes

* * *

Assign MTD to each entry below.
# protocol: in vivo
# Format: in vivo, rats (Sprague Dawley strain)
# measurementConditions: rat, in vivo; oral, rats; dose at which Δ% was determined; read-out: Maximum action: Dose (highest non-toxic dose)
Express the reported value numerically, then name its unit.

Task: May I ask what MTD has been recorded for Cc1nc(Cc2ccccc2)c2c(c1OCCCCNC(C)C)COC2 [V] ?
Output: 100 mg/kg

Task: May I ask what MTD has been recorded for Cc1nc(Cc2ccccc2)c2c(c1OCCCCNC(C)(C)C)COC2 [VIII] ?
Output: 46.4 mg/kg

Task: May I ask what MTD has been recorded for CCN(CC)CCC(C)CCOc1c(C)nc(Cc2ccccc2)c2c1COC2 (stereo not drawn) [VII] ?
Output: 100 mg/kg

Task: May I ask what MTD has been recorded for Cc1nc(Cc2ccccc2)c2c(c1OCCC(C)CCNC(C)C)COC2 (stereo not drawn) [VI] ?
Output: 100 mg/kg

Task: May I ask what MTD has been recorded for Cc1nc(Cc2ccccc2)c2c(c1OCCCNC(C)C)COC2 [Example IV] ?
Output: 215 mg/kg

Task: May I ask what MTD has been recorded for CN(C)CCCOc1c(Cc2ccccc2)nc(Cc2ccccc2)c2c1COC2 [III] ?
Output: 215 mg/kg

* * *

# protocol: acute toxicity (LD 50, Probit analysis, death within 24 hours)
# measurementConditions: mouse, in vivo; footnote 7 formula given as drawing 13; values correspond to LD 50 (mice, i.p.) / ED 50 (rats, oral); read-out: Therapeutic range
endpoint: selectivity ratio
In your answer, state the number alone without any accompanying words.

Task: May I ask what selectivity ratio has been recorded for Cc1nc(Cc2ccccc2)c2c(c1OCCCCNC(C)(C)C)COC2 ?
Output: 7.95

Task: May I ask what selectivity ratio has been recorded for Cc1nc(Cc2ccccc2)c2c(c1OCCC(C)CCNC(C)C)COC2 (stereo not drawn) ?
Output: 6.74

Task: May I ask what selectivity ratio has been recorded for CN(C)CCCOc1c(Cc2ccccc2)nc(Cc2ccccc2)c2c1COC2 ?
Output: 6.6

Task: May I ask what selectivity ratio has been recorded for Cc1nc(Cc2ccccc2)c2c(c1OCCCCNC(C)C)COC2 ?
Output: 17.5

Task: May I ask what selectivity ratio has been recorded for Cc1nc(Cc2ccccc2)c2c(c1OCCCNC(C)C)COC2 ?
Output: 4.81

Task: May I ask what selectivity ratio has been recorded for CCN(CC)CCC(C)CCOc1c(C)nc(Cc2ccccc2)c2c1COC2 (stereo not drawn) ?
Output: 7.86
